Ref: patent US20130178469A1

# assay notes: Bioavailability and pharmacokinetic profile following intravenous and oral administration
# Assay type: in vivo, Male Sprague Dawley Rats
# study conditions: male, Sprague Dawley, rat, plasma, po, 10 mg/kg, PO (10 mg/kg); Mean
assay metric: Tmax (min)

{"compound": "CN1CCN(c2cc(N3CCN(C)S3(=O)=O)c3nc(C(=O)NCc4ccc(F)cc4)c(O)c(=O)n3c2)CC1 [Example 3.4]", "assay metric": "Tmax", "recorded value": 22.8}

====

# assay notes: Bioavailability and pharmacokinetic profile following intravenous and oral administration
# Assay type: in vivo, Male Sprague Dawley Rats
# study conditions: male, Sprague Dawley, rat, plasma, iv, 5 mg/kg, IV 5 mg/kg; Rat 2; 8 hr
assay metric: concentration at 8 h (ng/mL)

{"molecule": "CN1CCN(c2cc(N3CCN(C)S3(=O)=O)c3nc(C(=O)NCc4ccc(F)cc4)c(O)c(=O)n3c2)CC1 [Example 3.4]", "recorded value": 2.19}

====

# assay notes: Bioavailability and pharmacokinetic profile following intravenous and oral administration
# Format: in vivo, Male Sprague Dawley Rats
# study conditions: male, Sprague Dawley, rat, plasma, po, 10 mg/kg, PO (10 mg/kg); animal 801

{"smiles string": "CN1CCN(c2cc(N3CCN(C)S3(=O)=O)c3nc(C(=O)NCc4ccc(F)cc4)c(O)c(=O)n3c2)CC1", "Tmax / min": 15}

====

# assay notes: Bioavailability and pharmacokinetic profile following intravenous and oral administration
# Type: in vivo, Male Sprague Dawley Rats
# study conditions: male, Sprague Dawley, rat, plasma, iv, 5 mg/kg, IV 5 mg/kg; Rat 1; 1 hr

{"smiles string": "CN1CCN(c2cc(N3CCN(C)S3(=O)=O)c3nc(C(=O)NCc4ccc(F)cc4)c(O)c(=O)n3c2)CC1", "concentration at 1 hr (ng/mL)": 548}

====

# assay notes: Bioavailability and pharmacokinetic profile following intravenous and oral administration
# Type: in vivo, Male Sprague Dawley Rats
# study conditions: male, Sprague Dawley, rat, plasma, po, 10 mg/kg, PO 10 mg/kg; Mean; 0.083 hr

{"compound": "CN1CCN(c2cc(N3CCN(C)S3(=O)=O)c3nc(C(=O)NCc4ccc(F)cc4)c(O)c(=O)n3c2)CC1 [Example 3.4]", "concentration at 0.083 hr [ng/mL]": 35.2}

====

# assay notes: Bioavailability and pharmacokinetic profile following intravenous and oral administration
# Format: in vivo, Male Sprague Dawley Rats
# study conditions: male, Sprague Dawley, rat, plasma, po, 10 mg/kg, PO (10 mg/kg); animal 802
assay metric: Tmax (min)

{"smiles string": "CN1CCN(c2cc(N3CCN(C)S3(=O)=O)c3nc(C(=O)NCc4ccc(F)cc4)c(O)c(=O)n3c2)CC1", "assay metric": "Tmax", "recorded value": 30}

====

# assay notes: Bioavailability and pharmacokinetic profile following intravenous and oral administration
# Format: in vivo, Male Sprague Dawley Rats
# study conditions: male, Sprague Dawley, rat, plasma, po, 10 mg/kg, PO (10 mg/kg); animal 802; read-out: MRT(0-∞)
# Method: Method: For IV infusion over 10 minutes the compound of Example 3.4 was dissolved in 20% DMSO, 30% PEG400 and 50% Water. For oral (PO) dosing AVX62738 was dissolved in 0.5% benzyl alcohol and 0.4% Tween 80 and 99.1% 0.5% hydroxypropylmethylcellulose. Compounds were dosed IV and then after a one week washout, orally in the same rats. (Body weight: Rat 1: 254.7 g; Rat 2: 253.4 g). Ex-vivo plasma samples were assayed for AVX62738 using an LC-ms method of Lower limit of quantitation. (LLOQ)=2.5 ng/mL.

{"smiles string": "CN1CCN(c2cc(N3CCN(C)S3(=O)=O)c3nc(C(=O)NCc4ccc(F)cc4)c(O)c(=O)n3c2)CC1", "MRT inf": "1.22 h"}

====

Overview of recorded EC50 for various compounds
# Test system: HIV
# assay notes: Inhibition of HIV Replication (NL4-3), extracellular p24 in HuT-78 cells
# Format: cell-based
# study conditions: Human immunodeficiency virus 1, NL43, HuT78

{"compound": "O=C(NCc1ccc(F)cc1)c1nc2ccc(Br)cn2c(=O)c1O [reference compound]", "EC50": "100 to 1000 nM"}
{"compound": "Cc1ccc2nc(C(=O)NCc3ccc(F)cc3)c(O)c(=O)n2c1 [drawing 183, reference compound]", "EC50": "100 to 1000 nM"}
{"compound": "O=C(NCc1ccc(Cl)c(Cl)c1)c1nc2c(N3CCCS3(=O)=O)cc(N3CCOCC3)cn2c(=O)c1O", "EC50": "< 1 nM"}
{"compound": "Cc1ccc2nc(C(=O)NCc3ccc(Cl)c(Cl)c3)c(O)c(=O)n2c1 [drawing 189, reference compound]", "EC50": "100 to 1000 nM"}
{"compound": "O=C(NCc1ccc(Cl)c(Cl)c1)c1nc2c(N3CCOCC3)cc(N3CCOCC3)cn2c(=O)c1O", "EC50": "1 to 10 nM"}
{"compound": "CC(=O)Nc1cc(N2CCOCC2)cn2c(=O)c(O)c(C(=O)NCc3ccc(F)cc3)nc12", "EC50": "20 to 100 nM"}
{"compound": "CC(=O)N(C)c1cc(N2CCOCC2)cn2c(=O)c(O)c(C(=O)NCc3ccc(F)cc3)nc12", "EC50": "1 to 10 nM"}
{"compound": "O=C(NCc1ccc(F)cc1)c1nc2c(N3CCCS3(=O)=O)cc(N3CCOCC3)cn2c(=O)c1O", "EC50": "< 1 nM"}

====

# assay notes: Bioavailability and pharmacokinetic profile following intravenous and oral administration
# Type: in vivo, Male Sprague Dawley Rats
# study conditions: male, Sprague Dawley, rat, plasma, iv, 5 mg/kg, IV 5 mg/kg; Mean; 4 hr

{"molecule": "CN1CCN(c2cc(N3CCN(C)S3(=O)=O)c3nc(C(=O)NCc4ccc(F)cc4)c(O)c(=O)n3c2)CC1 [Example 3.4]", "concentration at 4 hr": "19 ng/mL"}

====

# assay notes: Bioavailability and pharmacokinetic profile following intravenous and oral administration
# Format: in vivo, Male Sprague Dawley Rats
# study conditions: male, Sprague Dawley, rat, plasma, iv, 5 mg/kg, IV 5 mg/kg; Mean; 8 hr

{"smiles string": "CN1CCN(c2cc(N3CCN(C)S3(=O)=O)c3nc(C(=O)NCc4ccc(F)cc4)c(O)c(=O)n3c2)CC1", "concentration at 8 h, ng/mL": 2.41}

====

# assay notes: Bioavailability and pharmacokinetic profile following intravenous and oral administration
# Assay type: in vivo, Male Sprague Dawley Rats
# study conditions: male, Sprague Dawley, rat, plasma, iv, 5 mg/kg, IV 5 mg/kg; Rat 1; 4 hr

{"smiles string": "CN1CCN(c2cc(N3CCN(C)S3(=O)=O)c3nc(C(=O)NCc4ccc(F)cc4)c(O)c(=O)n3c2)CC1", "concentration at 4 hr [ng/mL]": 19.3}

====

# assay notes: Bioavailability and pharmacokinetic profile following intravenous and oral administration
# Format: in vivo, Male Sprague Dawley Rats
# study conditions: male, Sprague Dawley, rat, plasma, iv, 5 mg/kg, IV (5 mg/kg); animal 701; read-out: MRT(0-∞)
assay metric: MRT inf (min)

{"smiles string": "CN1CCN(c2cc(N3CCN(C)S3(=O)=O)c3nc(C(=O)NCc4ccc(F)cc4)c(O)c(=O)n3c2)CC1", "recorded value": 40.8}

====

# assay notes: Bioavailability and pharmacokinetic profile following intravenous and oral administration
# Format: in vivo, Male Sprague Dawley Rats
# study conditions: male, Sprague Dawley, rat, plasma, po, 10 mg/kg, PO (10 mg/kg); animal 801; read-out: MRT(0-∞)
assay metric: MRT inf (h)

{"compound": "CN1CCN(c2cc(N3CCN(C)S3(=O)=O)c3nc(C(=O)NCc4ccc(F)cc4)c(O)c(=O)n3c2)CC1 [Example 3.4]", "recorded value": 2.03}

====

# assay notes: Bioavailability and pharmacokinetic profile following intravenous and oral administration
# Type: in vivo, Male Sprague Dawley Rats
# study conditions: male, Sprague-Dawley, rat, plasma, iv, 5 mg/kg, IV (5 mg/kg); animal 702

{"smiles string": "CN1CCN(c2cc(N3CCN(C)S3(=O)=O)c3nc(C(=O)NCc4ccc(F)cc4)c(O)c(=O)n3c2)CC1", "AUC(0-inf) / ng·h/mL": 1860}

====

# assay notes: Bioavailability and pharmacokinetic profile following intravenous and oral administration
# Format: in vivo, Male Sprague Dawley Rats
# study conditions: male, Sprague Dawley, rat, plasma, po, 10 mg/kg, PO 10 mg/kg; Rat 1; 2 hr

{"compound": "CN1CCN(c2cc(N3CCN(C)S3(=O)=O)c3nc(C(=O)NCc4ccc(F)cc4)c(O)c(=O)n3c2)CC1 [Example 3.4]", "unit text": "ng/mL", "concentration at 2 hr": 13.8}

====

# assay notes: Bioavailability and pharmacokinetic profile following intravenous and oral administration
# Type: in vivo, Male Sprague Dawley Rats
# study conditions: male, Sprague Dawley, rat, plasma, iv, 5 mg/kg, IV (5 mg/kg); animal 701
assay metric: AUC(0-inf) (ng·h/mL)

{"compound": "CN1CCN(c2cc(N3CCN(C)S3(=O)=O)c3nc(C(=O)NCc4ccc(F)cc4)c(O)c(=O)n3c2)CC1 [Example 3.4]", "unit text": "ng·h/mL", "recorded value": 1860}
